Test: Antifungal activity against Fusarium sporotrichioides IMT 496 after 72 hrs by serial dilution method
Type: functional
readout: MIC (10'-2 umol/ml)

compound	readout	result
CNc1nc(C)c(C(=O)/C=C/c2ccccc2OC)s1	MIC (10'-2 umol/ml)	17
CNc1nc(C)c(C(=O)/C=C/c2ccccc2Cl)s1	MIC (10'-2 umol/ml)	15.3
CC(=O)N1CCN(c2ccc(OCC3COC(Cn4ccnc4)(c4ccc(Cl)cc4Cl)O3)cc2)CC1 (configuration not stated)	MIC (10'-2 umol/ml)	9.42
CNc1nc(C)c(C(=O)/C=C/c2ccc(Cl)cc2)s1	MIC (10'-2 umol/ml)	17

The recorded MIC (10'-2 umol/ml) for entry c1ccc(-c2ccc(C(c3ccccc3)n3ccnc3)cc2)cc1 (configuration not stated) equals 8.06

The recorded MIC (10'-2 umol/ml) for entry CNc1nc(C)c(C(=O)/C=C/c2ccccc2)s1 equals 38.8

The recorded MIC (10'-2 umol/ml) for entry CNc1nc(C)c(C(=O)/C=C/c2ccc(Cl)cc2Cl)s1 equals 15.3

The recorded MIC (10'-2 umol/ml) for entry CNc1nc(C)c(C(=O)/C=C/c2ccc(OC)cc2)s1 equals 34

The recorded MIC (10'-2 umol/ml) for entry CNc1nc(C)c(C(=O)/C=C/c2cccc(Cl)c2)s1 equals 17

The recorded MIC (10'-2 umol/ml) for entry CNc1nc(C)c(C(=O)/C=C/c2cccc([N+](=O)[O-])c2)s1 equals 33

The recorded MIC (10'-2 umol/ml) for entry CNc1nc(C)c(C(=O)/C=C/c2c(Cl)cccc2Cl)s1 equals 15.3

The recorded MIC (10'-2 umol/ml) for entry CNc1nc(C)c(C(=O)/C=C/c2ccc([N+](=O)[O-])cc2)s1 equals 16.5

---

Tested on: Listeria monocytogenes
Assay: Bactericidal activity against Listeria monocytogenes NCTC 7973 after 24 hrs
Type: functional
Conditions: NCTC 7973, 24 h
Examples of molecules with documented MBC follow.
Field: value (include unit after the number)

Consider the following illustrative entries.
CNc1nc(C)c(C(=O)/C=C/c2c(Cl)cccc2Cl)s1 459 µM
CNc1nc(C)c(C(=O)/C=C/c2ccccc2)s1 581 µM
CNc1nc(C)c(C(=O)/C=C/c2ccc([N+](=O)[O-])cc2)s1 495 µM

The recorded MBC for entry CNc1nc(C)c(C(=O)/C=C/c2ccc(Cl)cc2)s1 equals 513 µM

The recorded MBC for entry CNc1nc(C)c(C(=O)/C=C/c2cccc([N+](=O)[O-])c2)s1 equals 495 µM

The recorded MBC for entry CNc1nc(C)c(C(=O)/C=C/c2ccc(Cl)cc2Cl)s1 equals 459 µM

The recorded MBC for entry CNc1nc(C)c(C(=O)/C=C/c2ccccc2Cl)s1 equals 459 µM

The recorded MBC for entry CN[C@@H]1[C@H](O[C@H]2[C@H](O[C@H]3[C@H](O)[C@@H](O)[C@H](N=C(N)N)[C@@H](O)[C@@H]3N=C(N)N)O[C@@H](C)[C@]2(O)C=O)O[C@@H](CO)[C@H](O)[C@H]1O equals 43 µM

The recorded MBC for entry CC1(C)S[C@@H]2[C@H](NC(=O)[C@H](N)c3ccccc3)C(=O)N2[C@H]1C(=O)O equals 372 µM

---

Tested on: Bacillus cereus
Experiment: Bactericidal activity against Bacillus cereus clinical isolate after 24 hrs
Assay type: functional
Examples of compounds with documented log10 MBC follow.
Hi team, quick reminder: these entries are log10 of MBC (µM).

Consider the following illustrative entries.
CNc1nc(C)c(C(=O)/C=C/c2ccccc2Cl)s1 2.49
CNc1nc(C)c(C(=O)/C=C/c2ccc(Cl)cc2Cl)s1 2.49
CC1(C)S[C@@H]2[C@H](NC(=O)[C@H](N)c3ccccc3)C(=O)N2[C@H]1C(=O)O 2.57
CNc1nc(C)c(C(=O)/C=C/c2cccc([N+](=O)[O-])c2)s1 2.52
CNc1nc(C)c(C(=O)/C=C/c2ccc(Cl)cc2)s1 2.71
CNc1nc(C)c(C(=O)/C=C/c2ccc([N+](=O)[O-])cc2)s1 2.69

The recorded log10 MBC for entry CNc1nc(C)c(C(=O)/C=C/c2ccccc2)s1 equals 2.76

The recorded log10 MBC for entry CNc1nc(C)c(C(=O)/C=C/c2ccc(OC)cc2)s1 equals 2.53

---

System: Penicillium ochrochloron
Experiment: Antifungal activity against Penicillium ochrochloron ATCC 9112 after 72 hrs by serial dilution method
Type: functional
Conditions: ATCC 9112, 72 h
Examples of molecules with documented MIC follow.
Field: value (include unit after the number)

Tested on Penicillium ochrochloron, the item CNc1nc(C)c(C(=O)/C=C/c2ccc(Cl)cc2Cl)s1 showed MIC equal to 306 µM

Tested on Penicillium ochrochloron, the item CNc1nc(C)c(C(=O)/C=C/c2ccc(OC)cc2)s1 showed MIC equal to 340 µM

Tested on Penicillium ochrochloron, the item CNc1nc(C)c(C(=O)/C=C/c2ccccc2Cl)s1 showed MIC equal to 306 µM

Tested on Penicillium ochrochloron, the item CNc1nc(C)c(C(=O)/C=C/c2c(Cl)cccc2Cl)s1 showed MIC equal to 153 µM

Tested on Penicillium ochrochloron, the item CNc1nc(C)c(C(=O)/C=C/c2ccc([N+](=O)[O-])cc2)s1 showed MIC equal to 330 µM

Tested on Penicillium ochrochloron, the item CNc1nc(C)c(C(=O)/C=C/c2ccccc2)s1 showed MIC equal to 194 µM

Tested on Penicillium ochrochloron, the item CC(=O)N1CCN(c2ccc(OCC3COC(Cn4ccnc4)(c4ccc(Cl)cc4Cl)O3)cc2)CC1 (configuration not stated) showed MIC equal to 18.8 µM

---

System: Salmonella typhimurium
Assay: Bactericidal activity against Salmonella Typhimurium ATCC 13311 after 24 hrs
Assay type: functional, Salmonella enterica subsp. enterica serovar Typhimurium
Conditions: Salmonella enterica, ATCC 13311, 24 h
readout: MBC (µM)
Give the value, in units of µM, as a plain number.

CNc1nc(C)c(C(=O)/C=C/c2ccccc2Cl)s1 459

The recorded MBC for entry CC1(C)S[C@@H]2[C@H](NC(=O)[C@H](N)c3ccccc3)C(=O)N2[C@H]1C(=O)O equals 372

The recorded MBC for entry CNc1nc(C)c(C(=O)/C=C/c2ccc([N+](=O)[O-])cc2)s1 equals 330

The recorded MBC for entry CNc1nc(C)c(C(=O)/C=C/c2ccc(Cl)cc2)s1 equals 342

The recorded MBC for entry CNc1nc(C)c(C(=O)/C=C/c2c(Cl)cccc2Cl)s1 equals 306

The recorded MBC for entry CNc1nc(C)c(C(=O)/C=C/c2cccc(Cl)c2)s1 equals 342

The recorded MBC for entry CNc1nc(C)c(C(=O)/C=C/c2cccc([N+](=O)[O-])c2)s1 equals 330

---

Test system: Staphylococcus aureus
Assay: Antibacterial activity against Staphylococcus aureus ATCC 6538 after 24 hrs by microdilution method
Type: functional
Settings: ATCC 6538, 24 h
readout: MIC (µM)
Give the value, in units of µM, as a plain number.

CNc1nc(C)c(C(=O)/C=C/c2cccc(Cl)c2)s1 342
CNc1nc(C)c(C(=O)/C=C/c2ccccc2Cl)s1 306

The recorded MIC for entry CNc1nc(C)c(C(=O)/C=C/c2c(Cl)cccc2Cl)s1 equals 306

The recorded MIC for entry CNc1nc(C)c(C(=O)/C=C/c2ccc([N+](=O)[O-])cc2)s1 equals 330

The recorded MIC for entry CNc1nc(C)c(C(=O)/C=C/c2ccccc2OC)s1 equals 347

The recorded MIC for entry CNc1nc(C)c(C(=O)/C=C/c2ccc(Cl)cc2Cl)s1 equals 306

The recorded MIC for entry CC1(C)S[C@@H]2[C@H](NC(=O)[C@H](N)c3ccccc3)C(=O)N2[C@H]1C(=O)O equals 248

The recorded MIC for entry CNc1nc(C)c(C(=O)/C=C/c2ccccc2)s1 equals 388

The recorded MIC for entry CNc1nc(C)c(C(=O)/C=C/c2ccc(Cl)cc2)s1 equals 513

The recorded MIC for entry CNc1nc(C)c(C(=O)/C=C/c2cccc([N+](=O)[O-])c2)s1 equals 330

The recorded MIC for entry CN[C@@H]1[C@H](O[C@H]2[C@H](O[C@H]3[C@H](O)[C@@H](O)[C@H](N=C(N)N)[C@@H](O)[C@@H]3N=C(N)N)O[C@@H](C)[C@]2(O)C=O)O[C@@H](CO)[C@H](O)[C@H]1O equals 17.1

The recorded MIC for entry CNc1nc(C)c(C(=O)/C=C/c2ccc(OC)cc2)s1 equals 290

---

Tested on: Pseudomonas aeruginosa
Test: Antibacterial activity against Pseudomonas aeruginosa ATCC 27853 after 24 hrs by microdilution method
Type: functional
Conditions: ATCC 27853, 24 h
Examples of compounds with documented MIC follow.

Consider the following illustrative entries.
CNc1nc(C)c(C(=O)/C=C/c2ccccc2Cl)s1 260 µM
CNc1nc(C)c(C(=O)/C=C/c2cccc([N+](=O)[O-])c2)s1 280 µM

Next up:
The recorded MIC for entry CNc1nc(C)c(C(=O)/C=C/c2cccc(Cl)c2)s1 equals 342 µM
